assayed_target: Protein Tat (Human immunodeficiency virus type 1 group M subtype B (isolate HXB2)) (UniProt P04608)
Sequence (P04608 whole entry, looked up): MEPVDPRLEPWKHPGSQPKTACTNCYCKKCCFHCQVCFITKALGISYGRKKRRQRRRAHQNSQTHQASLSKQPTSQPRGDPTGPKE
test_details: inhibitors of Tat binding to TAR RNA, dose response, counter-screen for Vif-APOBEC3G degradation inhibitor project, biochemical, fluorescence polarization, FAM-labeled TAR RNA (AID 1117361)
parameter: IC50

[[record]]
compound = "O=CN/C=C/c1cc(O)ccc1O"
experimental_value = "11 µM"

[[record]]
compound = "COc1ccc2c3c(cccc13)N(C)N=C2C"
experimental_value = "11.1 µM"

[[record]]
compound = "Cc1cccc2cc(-c3ccccc3)c(-c3ccccc3)c[n+]12"
experimental_value = "15 µM"

[[record]]
compound = "CN1CCN(C2=C(Cl)C(=O)C(c3cnc(N4CCCCC4)s3)=C(Cl)C2=O)CC1"
experimental_value = "6.71 µM"

[[record]]
compound = "CNc1ccc(Br)cc(C(=O)/C=C/c2cccc(OC)c2OC)c1=O"
experimental_value = "8 µM"

[[record]]
compound = "FC(F)(F)c1cc(-c2ccco2)nc(NCc2ccco2)n1"
experimental_value = "28.5 µM"

[[record]]
compound = "COC1=C(N)C(=O)c2nc(-c3nc(C(=O)O)c(C)c(-c4ccc(OC)c(OC)c4O)c3N)ccc2C1=O"
experimental_value = "42.1 µM"

[[record]]
compound = "O=C1CC(c2ccco2)CC(O)=C1C=Nc1cc(Cl)ccc1O (centres undefined)"
experimental_value = "20.5 µM"

[[record]]
compound = "COC(=O)C1=C(C)NC(=O)/C1=C\\c1cc(C)n(-c2ccccc2C)c1C"
experimental_value = "28.7 µM"

[[record]]
compound = "O=C(Cc1cccs1)N/N=C/C=C/c1ccco1"
experimental_value = "8.22 µM"

[[record]]
compound = "CNc1ccc(Br)cc(C(=O)/C=C/c2cc(OC)ccc2OC)c1=O"
experimental_value = "9.75 µM"

[[record]]
compound = "CCC1C/C(=C/c2ccco2)C(=O)/C(=C/c2ccco2)C1 (centres undefined)"
experimental_value = "12.6 µM"

[[record]]
compound = "COC/C=C/C1=CC2=CC(=O)C(C)(OC(=O)C3CCCC3)C(=O)C2=CO1 (centres undefined)"
experimental_value = "10.5 µM"

[[record]]
compound = "Cc1ccc(C)n1/N=C1/NC(=O)CS1"
experimental_value = "0.882 µM"

[[record]]
compound = "Nc1nc(-c2ccco2)c(-c2ccco2)s1"
experimental_value = "2.39 µM"

[[record]]
compound = "O=C1CC(Nc2ccc(N3CCOCC3)cc2)C(=O)N1Cc1ccccc1 (centres undefined)"
experimental_value = "15.4 µM"

[[record]]
compound = "O=C1/C(=C/c2ccco2)Oc2c1ccc(O)c2CN1CCCCC1"
experimental_value = "4.3 µM"

[[record]]
compound = "Cc1ccc(C2SCC(=O)N2Cc2cn3ccsc3n2)o1 (centres undefined)"
experimental_value = "68.5 µM"

[[record]]
compound = "O=C(O)c1ccc2c(c1)C1C=CCC1C(c1ccncc1)N2 (centres undefined)"
experimental_value = "6.37 µM"

[[record]]
compound = "O=c1cc(-c2ccc(O)cc2)oc2c(O)c(O)c(O)c(O)c12"
experimental_value = "74.9 µM"

[[record]]
compound = "C=CCn1c(C)c(C(C)=O)c(N2CCN(c3ccccc3)CC2)nc1=S"
experimental_value = "7.51 µM"

[[record]]
compound = "Cc1ccc(C)n1-c1sccc1C(=O)O"
experimental_value = "0.909 µM"

[[record]]
compound = "O=C1CC(Nc2ccc(N3CCOCC3)cc2)C(=O)N1c1ccccc1F (centres undefined)"
experimental_value = "12.9 µM"

[[record]]
compound = "O=C1NC(=O)N(Cc2ccc(F)cc2)C(=O)/C1=C\\C=C\\c1ccco1"
experimental_value = "42.3 µM"

